Hey, just so you know, these numbers are from patent US20210023171A1.

tested_system: αvβ3 integrin on cells (U87MG glioblastoma cells; K562-αvβ3 cells) (UniProt P06756 31-1048; P05106 27-788)
Sequence (P06756 31-1048, chain 1 of 2): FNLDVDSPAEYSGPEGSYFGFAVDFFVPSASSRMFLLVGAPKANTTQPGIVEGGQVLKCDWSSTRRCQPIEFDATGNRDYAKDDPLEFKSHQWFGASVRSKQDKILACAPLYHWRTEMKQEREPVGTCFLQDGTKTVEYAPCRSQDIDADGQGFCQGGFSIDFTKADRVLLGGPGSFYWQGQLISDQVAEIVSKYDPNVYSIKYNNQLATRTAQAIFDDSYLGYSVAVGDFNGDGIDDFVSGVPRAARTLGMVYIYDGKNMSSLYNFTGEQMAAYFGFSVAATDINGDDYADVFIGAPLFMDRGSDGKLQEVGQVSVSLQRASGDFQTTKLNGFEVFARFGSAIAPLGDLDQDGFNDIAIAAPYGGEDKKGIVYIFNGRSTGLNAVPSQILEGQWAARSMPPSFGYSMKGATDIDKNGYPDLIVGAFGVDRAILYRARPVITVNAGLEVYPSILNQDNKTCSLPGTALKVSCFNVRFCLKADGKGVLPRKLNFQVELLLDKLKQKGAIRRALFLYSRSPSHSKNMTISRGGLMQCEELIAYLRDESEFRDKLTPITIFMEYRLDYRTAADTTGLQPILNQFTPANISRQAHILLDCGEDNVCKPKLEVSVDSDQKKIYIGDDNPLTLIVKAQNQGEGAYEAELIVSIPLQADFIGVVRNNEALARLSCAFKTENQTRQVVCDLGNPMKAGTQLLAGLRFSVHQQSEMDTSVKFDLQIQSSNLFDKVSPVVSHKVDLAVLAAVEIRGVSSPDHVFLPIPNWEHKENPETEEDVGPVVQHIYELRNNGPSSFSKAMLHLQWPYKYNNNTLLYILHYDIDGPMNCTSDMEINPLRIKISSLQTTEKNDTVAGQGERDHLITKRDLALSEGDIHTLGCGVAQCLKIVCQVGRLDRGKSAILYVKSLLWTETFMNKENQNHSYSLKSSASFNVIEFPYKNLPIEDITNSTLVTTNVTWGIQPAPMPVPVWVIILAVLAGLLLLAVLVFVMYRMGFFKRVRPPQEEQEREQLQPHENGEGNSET
Sequence (P05106 27-788, chain 2 of 2): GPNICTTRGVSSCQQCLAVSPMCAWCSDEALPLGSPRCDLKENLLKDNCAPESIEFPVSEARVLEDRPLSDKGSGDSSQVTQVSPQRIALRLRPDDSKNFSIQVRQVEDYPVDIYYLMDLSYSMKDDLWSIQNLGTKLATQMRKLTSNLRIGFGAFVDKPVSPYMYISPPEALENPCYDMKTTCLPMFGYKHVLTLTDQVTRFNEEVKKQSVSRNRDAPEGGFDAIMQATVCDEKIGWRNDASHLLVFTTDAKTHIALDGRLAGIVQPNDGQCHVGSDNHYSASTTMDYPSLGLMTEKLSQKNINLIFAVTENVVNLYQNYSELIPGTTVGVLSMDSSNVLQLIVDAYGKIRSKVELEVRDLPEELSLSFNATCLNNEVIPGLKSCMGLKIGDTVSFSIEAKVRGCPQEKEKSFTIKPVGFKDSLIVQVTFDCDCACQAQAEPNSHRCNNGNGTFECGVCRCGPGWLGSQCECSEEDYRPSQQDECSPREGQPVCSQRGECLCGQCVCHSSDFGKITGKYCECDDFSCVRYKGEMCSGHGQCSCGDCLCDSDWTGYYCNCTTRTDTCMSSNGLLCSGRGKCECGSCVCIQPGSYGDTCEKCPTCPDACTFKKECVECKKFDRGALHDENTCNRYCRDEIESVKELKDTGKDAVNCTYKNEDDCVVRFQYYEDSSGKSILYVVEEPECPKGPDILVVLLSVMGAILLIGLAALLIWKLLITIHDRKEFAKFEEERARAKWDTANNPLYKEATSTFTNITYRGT
assay_procedure: cell-based or functional assay
No end group written: not given here.
metric_name: adhesion (IC50; nM) of K562-αvβ3 cells to vitronectin-coated wells
Write the answer as a number in nM, unit excluded.

recombinant engineered AgRP peptide 7J (FLAG and hexahistidine tagged) (also called 7J (6B); 6B) DYKDDDDKGCVRLHESCLGQQVPCCDPAATCYCEGRGDRDMKCYCRHHHHHH ... 200
recombinant engineered AgRP peptide 7E (FLAG and hexahistidine tagged) (peptide) DYKDDDDKGCVRLHESCLGQQVPCCDPAATCYCVGRGDDNLKCYCRHHHHHH ... 9.9
recombinant engineered AgRP peptide 7A (FLAG and hexahistidine tagged) (also called 7A (5E); 5E) DYKDDDDKGCVRLHESCLGQQVPCCDPAATCYCSGRGDNDLVCYCRHHHHHH ... 61

Q: Look at this binder and give its reported adhesion (IC50; nM) of K562-αvβ3 cells to vitronectin-coated wells. recombinant engineered AgRP peptide 6C (FLAG and hexahistidine tagged) (peptide) DYKDDDDKGCVRLHESCLGQQVPCCDPAATCYCTGRGDEKLRCYCRHHHHHH
Ans: 650

Q: For the binder shown here, QCESGPCCRNCKFLKEGTICKRARGDDMDDYCNGKTCDCPRNPHKGPAT (ligand, ends and bridges not checked; cysteine pairing not given here) [echistatin (unlabeled)] , give the reported adhesion (IC50; nM) of K562-αvβ3 cells to vitronectin-coated wells.
Ans: 3.2

Q: Which adhesion (IC50; nM) of K562-αvβ3 cells to vitronectin-coated wells value is on record for recombinant AgRP peptide 7C (FLAG and hexahistidine tagged) (peptide) DYKDDDDKGCVRLHESCLGQQVPCCDPAATCYCYGRGDNDLRCYCRHHHHHH ?
Ans: 12
